- Assay Protocol: protein stability index of a GFP-peptide fusion (yeast GPS) (PSI 1-4); higher = more stable; sorted into four equal gates, so the index is relative within each strain
- Reported Conditions: pdr5∆
So basically: protein stability index at 3 or higher? That is true (1). Lower than 3? That is false (0).

1) SDPVCLFVCNKDPDVPL [POP3]: false (0)
2) MTAQQAPKWYPSEDVAA [RPL6B]: false (0)
3) KLNELDELILEAKERYT [NNF1]: true (1)
4) EVLLAGFGRKGKAKGDI [RPS23A]: true (1)
5) MLTIARLGFFYNDQLYV [RPN7]: false (0)
6) DLQLLYVESDEDDTQIV [IRR1]: true (1)
7) AMHYSSNIELAFSSVEH [COB]: false (0)
8) AIIRLHPSIYTQVFNIL [POP1]: false (0)
9) LLYYIPSLELSAEYLQM [YJR042W/NUP85]: false (0)
10) DDMVEYEDGTPATTSQM [CYT1]: false (0)
11) KCVVIHNGSHRTVAGFS [ARP7]: false (0)

----------
protein stability index values, listed per item
- Assay Protocol: protein stability index of a GFP-peptide fusion (yeast GPS) (PSI 1-4); higher = more stable; sorted into four equal gates, so the index is relative within each strain
- Reported Conditions: pdr5∆
Observation Type: protein stability index

1. LDDFGEEELFEVTKEED [RRP43]: 2.54
2. MAPFRQDSILIIYPRSQ [ARP9]: 2.69
3. NEPSQSLISTRNDSTVN [BRN1]: 3.17
4. TSSAPAQNQGMFGAKPA [YGL172W/NUP49]: 2.75
5. KIITSRPLQKIMLLQLE [SIN4]: 2.08
6. SQWNDSSIDKIEDRDFL [SIR3]: 3.21
7. MFRNNYDGDTVTFSPTG [PRE5]: 2.84
8. FKSYATRTVITDWDPQF [SMC2]: 3.06
9. RLGSEADAKAFLDSMAQ [FAS2]: 3.44
10. QTVSNKEDAKATMENIQ [SRP54]: 3.18
11. YIRKLISSGLLYLQDSN [SRB8]: 1.21
12. PSCNNMLLITSGDSGVY [RPC11]: 1.55
13. YLEESFTNLGIIVQYLT [RGR1]: 2.49
14. LKSIESLKLENSDLEGK [SMC2]: 2.8
15. VNDTVKIDLASGKITDF [RPS4A]: 3.17

----------
- Assay Protocol: protein stability index of a GFP-peptide fusion (yeast GPS) (PSI 1-4); higher = more stable; sorted into four equal gates, so the index is relative within each strain
- Reported Conditions: san1∆
Observation Type: protein stability index

1. IRNCATEAGFFAIRDDR [RPT4]: 2.78
2. PTLPRSDRECPKCHSRE [RPB9]: 2.82
3. LSERKAEKAEIRKRRAS [RPS6A]: 3.24
4. NYTGWKAISVGANTSAA [PRE9]: 1.24
5. KSTTPYVSALKRINKFL [POP7]: 2
6. EPIKVNVRVGQAVETVG [RPN1]: 2.47
7. ARAPKYASKAVPHYNRL [RPL25]: 2.79
8. KKVVLRLECVKCKTRAQ [RPL42A]: 2.4
9. FETETEVTFKNANIFSS [FAS1]: 3.35
10. KAKNPLTHSTPKNFGIG [RPL8B]: 3.14
11. MQKQHEMKTQAAELQEK [SNF6]: 3.05
12. TEHLTELSDNEENFEAT [YCG1]: 3.54
13. ETLGDILKRDFELVSDL [ECM29]: 2.95
14. DVFDTLATYCPRVQGFY [GRR1]: 2.36
15. LNRLLRLIVDPNIADYI [PRP8]: 1.64
16. EDNAGVIANPKGEMKGS [RPL23A]: 2.28
17. VEVCLADLQGSEDHSFR [RPS1A]: 3.21
18. FVSRIPIMFQDFDDSTA [IRR1]: 1.69
19. QASDPSKKKKNIKKKDT [RPC53]: 3.2
20. YDNEKTAELIKELKEKE [PUP2]: 3.44
21. REVENSVSLLNSDIANL [SMC1]: 2.99
22. WESLAKKQNLSSHQRVF [SWP82]: 2.83
23. SMENTPKVPVSAAATPS [GAL11]: 2.24
24. AYPAAREQFLNAQDIDH [FAS1]: 2.84
25. IDETMMDKPLNFRILKS [SRB5]: 2.76
26. PMTVKLVQLPKSAMDTF [POP3]: 2.81
27. IKTQQHILPEVPPVENF [TAF14]: 2.89
28. TQIANAGASPMVNTQQP [PRE4]: 2.82
29. IILKTRQINKLIDSLPG [SRB7]: 2.62
30. NVKFLRIFISNVSENQP [SNF12]: 2.02
31. QNKKNLKWVAVVPDLGH [SSN2]: 2.81
32. RSKGKQNRPYNHPELQG [RPC17]: 2.03
33. LLKSNDPLLSLYNFLHK [RGR1]: 2.54
34. MAPFRQDSILIIYPRSQ [ARP9]: 2.82
35. AKKTSTSVDGKKRSKVR [HTB2]: 2.96
36. TPNFDDVLKENNDADKG [RIP1]: 1.29
37. QVVLGGTSKYLINGHRA [SMC2]: 2.97
38. SNYSRTMTISHLLLGFQ [YJL039C/NUP192]: 1.59
39. GNDAKPAKVEDVQKSSD [YLR335W/NUP2]: 3.17
40. AAFEKRYRVDLLNTDHT [RPO21]: 2.89
41. QAPTTGFSFGSQLGGNK [YJL041W/NSP1]: 3.37
42. QWSATWIAMRREKRDRT [PRP8]: 2.76
43. SVINNYLREDQMIDTSI [NUT1]: 3.32
44. PANNHQLGLQTVIRGNS [SMX2]: 2.91
45. MYCRPAPSDFSENQRQI [GRR1]: 3.02
46. DVHLLESKVYHKLRNLA [RPN6]: 2.17
47. GLNDLVEQYKFRETTHS [BRR2]: 2.84
48. SSNSQQSTPQPDDMVEI [ITC1]: 2.58
49. VMNTKLLQEGGSLSGNS [ESC2]: 3.13
50. KKRRGSRIYKTIKVAGT [SNU114]: 1.61
51. DEAKDFIVSGTASDQLF [PUP3]: 2.57
52. NKEKSNSPTSFFDGSAS [YOR098C/NUP1]: 3.02
53. PYLVANVVEVMDMNEIE [RPT5]: 1.91
54. VQLLSKSHNAHVRCGTA [RPN2]: 1.57
55. ETPKSNNSLSYHSGRLL [ITC1]: 2.63
56. TFLVSNDDEVSQFCYVS [RPN14]: 2.28
57. PLDTIETELPTLSLPDS [SMC1]: 2.92
58. TLLVIRRLHKVLRPFLL [SNF2]: 1.34
59. KFENDELAESTTTKIID [LRP1]: 2.23
60. LEVFHHFFKWIEFIVYH [SRB8]: 1.08
61. YLEESFTNLGIIVQYLT [RGR1]: 2.16
